Tested on: SKOV-3
method notes: MTT antiproliferative assay, SKOV3
Assay type: cell-based, human
condition label: Homo sapiens, SK-OV-3, MTT assay
outcome measure: pIC50
Expect pIC50 as a plain number equal to -log10 of the molar concentration.

For SKOV-3, give the measured pIC50 of the entry COc1cc(C[C@@H]2C[C@H]3C(=O)N(C)C4(C[C@H](C)CC[C@H]4C(C)C)N3O2)ccc1O (some centres unmarked)
4.84

For SKOV-3, give the measured pIC50 of the entry Cc1cccc(C[C@@H]2C[C@H]3C(=O)N(C)C4(C[C@H](C)CC[C@H]4C(C)C)N3O2)c1O (some centres unmarked)
4.71

For SKOV-3, give the measured pIC50 of the entry COc1cccc2c1C(=O)c1c(O)c3c(c(O)c1C2=O)C[C@@](O)(C(=O)CO)C[C@@H]3O[C@H]1C[C@H](N)[C@H](O)[C@H](C)O1 [Doxorubicin, doxorubicin, reference compound]
5.38

For SKOV-3, give the measured pIC50 of the entry COc1cc(C[C@@H]2C[C@H]3C(=O)N(C)[C@@]4(C[C@H](C)CC[C@H]4C(C)C)N3O2)ccc1OC(C)=O
4.55

For SKOV-3, give the measured pIC50 of the entry COc1ccc(C[C@@H]2C[C@H]3C(=O)N(C)C4(C[C@H](C)CC[C@H]4C(C)C)N3O2)cc1OC (some centres unmarked)
4.56

---

outcome measure: pIC50
Expect pIC50 as a plain number equal to -log10 of the molar concentration.

For EGFR tyrosine kinase (Homo sapiens, UniProt P00533), give the measured pIC50 of the entry COC(=O)c1cc(C)cc(C[C@@H]2C[C@H]3C(=O)N(C)[C@@]4(C[C@H](C)CC[C@H]4C(C)C)N3O2)c1O
6.32

For EGFR tyrosine kinase (Homo sapiens, UniProt P00533), give the measured pIC50 of the entry CC(C)[C@@H]1CC[C@@H](C)C[C@@]12N(C)C(=O)[C@@H]1C[C@@H](Cc3ccccc3O)ON12
6.53
